procedure_text: soluble fraction after stress (log2 fold change); higher = more stays soluble; pooled small domains, quantitative proteomics
cond: stress: pH 4
Would you mind telling me the reported soluble fraction (log2) of each entry?
Numbers only.

I have 2 sequences here; please give me soluble fraction (log2) for each one.
1. HMDIKKHISATLKREMEKRGLNFMEFSTELGIPRTTLQGYLKGTSSPQADSLEELADKLGISPAELVSG
2. HMGGYLIGDVAQMVGLSRDALRFYEKKGIIRADKKENGYRYYSEDDIYRLMYILYHRKMNTSLEEIGGLMS

1. -0.434
2. -0.478

I have 4 sequences here; please give me soluble fraction (log2) for each one.
1. HMQELNDQQRLAILNEWNNRATNPPSLLELVRVAFPDAEGADGRSWHGKKVKEFLSTRQIKARAS
2. HMNSNQESFENWLSANSWYNKDRAMRVFADSLGQELRNSGVSFEKALTQISAEVRKEFSHKFQ
3. HMEHVVFEVTESGELENNTAVKHVLNSFNNKSLNLAIDDFGTGYSNLRYIRDMMFGIIKIDRLFIKDINES
4. HMSQESIMPNLVGSTEDEAKAIAVEYGFQLNVISRVNNSQYPAGVIIDQNVDEGVRIKAGYPVGVTIS

-0.282
-0.213
0.158
-0.0416

I have 6 sequences here; please give me soluble fraction (log2) for each one.
1. HMSLPTYVQISEAIARRITAGQWLDGERLPPERTMAAEFGVAVGTLRKALSRLQDQKLLRRLQGSGNYINI
2. HMAEWLLVQLTNGNWFYGEVIEKTDATIVLNTDILGKVSIQKLDIRRSISGPLTAAKRQEIEDSERAKD
3. HMSNEYLMPNLIGMSWDEAKSKYSQYMTLVPEQEWSEVTKDQIFDQEYPEGRKVKIGTEVTVKVSMGI
4. HMDYGSISFINWSIEVLSVIKTRLDRGDKIIDEVSGEKYTASSFEKFVRKNFSSYIFSQVYAEDHKK
5. HMFEDYNELDEYLETRFIPTYVLLKQRKNANGEIDHFPSIRLQHIMALKLSEAELEHVMNYLKEKNIRVG
6. HMSETAEFIIQVNGKVRAKLQLPTDISKEEIQKLALADENVQKYLNGEPRKIIFPPNTRLVSIV

[-0.264, -0.341, 0.228, -0.016, -0.182, -0.0446]

Reference source for all entries: the domain aggregation screens of Martell et al. (2025)
